The reported measurements were obtained from patent US4604382A.

system: S-180 cells; assay: Inhibition of replication of S-180 cells in vitro; type: cell-based; conditions: Mus musculus, mean cell counts after 72 hours, triplicate, read-out: ID50 (S-180)
READOUT_TYPE: pIC50
Answers are plain numbers, as −log10 of the molar value.

Endpoint output: pIC50 of `Nc1ccn([C@H]2C[C@H](N)[C@@H](CO)O2)c(=O)n1` . Value?
5.40
